Molecular target: T1, human G-protein-coupled receptor family C group 5 member D (GPRC5D) (human, UniProt Q9NZD1 1-345)
T1 construct: whole, on cells; also called human GPRC5D protein
T1 sequence (Q9NZD1 whole entry): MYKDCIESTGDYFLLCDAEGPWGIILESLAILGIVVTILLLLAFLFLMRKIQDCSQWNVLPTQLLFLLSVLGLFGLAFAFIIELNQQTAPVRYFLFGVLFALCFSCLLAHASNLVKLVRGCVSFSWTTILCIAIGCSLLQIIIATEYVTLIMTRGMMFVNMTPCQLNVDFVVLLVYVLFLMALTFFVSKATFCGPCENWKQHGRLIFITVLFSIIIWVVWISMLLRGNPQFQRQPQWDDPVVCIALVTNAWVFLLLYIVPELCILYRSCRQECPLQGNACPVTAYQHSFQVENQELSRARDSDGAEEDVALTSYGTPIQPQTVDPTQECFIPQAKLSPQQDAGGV
Experiment: FACS, CHO-K1/human GPRC5D, hybridoma supernatant
Procedure: Antibodies harvested from the supernatants of the hybridomas were tested for their binding to the human GPRC5D protein expressed on CHO K1 cells was tested. CHO—K1 cells stably expressed human GPRC5D, were harvested from flasks. 100 µl of 1×10^6 cells/ml of cells were incubated with murine antibodies in 3-fold serial dilutions for 30 minutes on ice. […] Cells were washed with 200 µl of FACS buffer twice and transferred to BD Falcon 5 ml tube and analyzed by FACS.
Bottom by entry:
A bare number is all that is needed in reply.

// solved cases for Bottom follow
Binder: 14C2A11C6 (antibody, V domains shown, murine antibody from hybridoma supernatant; also called 14C2A1106) VH: QVHLQQSGAELARPGASVKMSCKASGYTFTTYTMHWVKQRPGQGLEWIGYINPNSAYTNYNQKFKDKATLTADKSSSTAYMQLSSLTSEDSAVYYCARRVLLLRVLDFFDYWGQGTTLTVSS VL: DVQITQSPSYLAASPGETITINCRASKSINKYLTWYQEKPGKTNKLLIYSGSTLQSGIPSRFSGSGSGSDFTLTISSLEPEDFAMYYCQQHNEYPLTFGTGTKLELK
Bottom: 5570
//
Binder: 34D4A10 (antibody, V domains shown, murine antibody from hybridoma supernatant) VH: QVQLQQSGAELVRPGTSVKVSCKASGYAFISYLIEWIKQRPGQGLEWIGMINPGSGGTNYNEKFKDKATLTADKSSSTAYMQLSSLTSDDSAVYFCARNWDVWGQGTTLTVSS VL: DVVMTQSPLSLPVSLGDQASVSCRSSQSLVHSTGNTYLHWYLQKPGQSPKLLIYKVSNRFSGVPDRFSGSGSGTDFTLKISRVEAEDLGVYFCSQSTHVPWTFGGGTKLEIK
Bottom: 2740
//
Binder: 37B9C4 (antibody, V domains shown, murine antibody from hybridoma supernatant) VH: EVNLEESGGGLVQPGGSMKLSCVASGFTFSDYWMNWVRQSPEKGLEWVAEIRLKSNNYATHYAESVKGRFTISRDDSKSSVYLQMNNLRAEDTGIYYCTRPLLWFRRYYAMDYWGQGTSVTVSS VL: DIQMTQTTSSLSASLGDRITISCSASQGISNYLNWYQQKPDGTVKLLIYYTSSLHSGVPSRFSGSGSGTDYSLTISNLEPADIATYYCQQYSKLPFTFGSGTKLEIK
Bottom: 10900

Record 29B2C10 (antibody, V domains shown, murine antibody from hybridoma supernatant) VH: EVQLQQSGPELVKPGASMKLSCKASGYSFTGYTMHWVKQSHGENLEWIGLINPYNGGTNYNQKFKGKATLTVDKSSSTAYMELLSLTSEDSAVYYCSRWGLRRAMDYWGQGTSVTVSS VL: DIVMTQSQKFMSTSVGDRVSVTCKASQNVGSNVAWYQQKPGQSPKALIYSASYRYSGVPDRFTGNGSGTDFTLTISNVQSEDLAEYFCQQYYNSPWTFGGGTKLEIK . Reported Bottom: 68600
